- experiment: Human HepG2 cell viability assay in 384 well format
- Type: toxicity, cell-based
- Design: dose 125 nL, time 70.5 hour; concentration not given beside the values
- setup_conditions: HepG2 cells, read-out: Inhibition
As shown below, each of these compounds has a reported cytotoxicity at 70.5 h value.
readout_type: cytotoxicity at 70.5 h (%)

>>> reading("Cc1nc(CN(C)C2CCN(Cc3cnc(C)s3)C2)no1 (stereo not drawn)")
-3.46
>>> reading("COCCNC(=O)Cn1nc(C(C)C)c2cnn(C(C)(C)C)c2c1=O")
-3.75
>>> reading("OC(CNCCn1cccn1)c1ccc(Br)cc1 (stereo not drawn)")
15.8
>>> reading("COCCN(CCOC)C(=O)NC1CCCCC1")
-4.8
>>> reading("CCOCc1ccccc1CNc1ccc2nncn2n1")
-5.87
>>> reading("CCOc1cc(C)ccc1NC(=O)N(C)Cc1cnn(C)c1")
-3.49
>>> reading("COCCc1nnc(NC(=O)CCCc2ccccc2)o1")
-6.03
>>> reading("CC(C)CC(NC(=O)c1ccn(C)c(=O)c1)c1ccccc1 (stereo not drawn)")
33.2
>>> reading("CN(C)C(=O)CN1CCCC(CCCc2ccccn2)(C(N)=O)C1 (stereo not drawn)")
10.1
>>> reading("CCn1cc(NC(=O)NCCN2CCc3ccccc3C2)cn1")
4.14
>>> reading("Cc1ccc(C(=O)N2CCc3ncc(Cn4cccn4)n3CC2)o1")
-3.58
>>> reading("c1ccc(CCCN2CC(n3cccn3)C2)cc1")
-2.22
>>> reading("CCCc1n[nH]c(C2CN(CCn3cccn3)CCO2)n1 (stereo not drawn)")
-6.79
>>> reading("COc1cccc(OC2CN(C(=O)C3CCCN(C(=O)N(C)C)C3)C2)c1 (stereo not drawn)")
26.8
>>> reading("c1c(CN2CCCC2)nc2n1CCN(CC1CC1)C2")
-4.19
>>> reading("CNC(=O)C(C)CN(C)C(=O)Nc1ccc(F)c(-n2cccc2)c1 (stereo not drawn)")
0.178
>>> reading("COCCNC(=O)[C@]12COC[C@H]1CN(C1CCOCC1)C2")
10.6
>>> reading("Cc1ccccc1CN1C[C@@H]2COC[C@]2(CNC(=O)C2CCC2)C1")
-7.13
>>> reading("CC(C)Cc1nc(NC(=O)c2cccnc2)n[nH]1")
-14.7
>>> reading("CC(NC(=O)NCCNc1cnccn1)c1cccs1 (stereo not drawn)")
-6.24
>>> reading("Cc1cc(CN(C)C(=O)CN2CC3(CCNCC3)OC2=O)n(C)n1")
-9.14
>>> reading("COc1ncnc(N)c1CNCCc1ccccc1")
-2.72
>>> reading("CCn1ccnc1CNc1nccc(-c2c(C)nn(C)c2C)n1")
-15.1
>>> reading("Cc1nccc(N[C@H]2CN(CC(C)(C)N3CCOCC3)C[C@@H]2C2CC2)n1")
20.2
>>> reading("Cc1nc([C@@H]2C[C@@H]3CCN(C(=O)Cc4cccs4)C[C@H]3O2)no1")
-11.4
>>> reading("Cn1cc(C2=CCN(CCCC(=O)Nc3ccc(C#N)cc3)CC2)cn1")
18.4
>>> reading("O=C(c1ccccc1Cl)N1CC[C@H](O)[C@@H](N2CCOCC2)CC1")
-4.63
>>> reading("Cc1cc(C2CCCN(C(=O)c3ccc(C)[nH]c3=O)C2)n[nH]1 (stereo not drawn)")
-13.9
>>> reading("COCc1nc(C(=O)N2CCCC(n3nc(C)cc3C)C2)cs1 (stereo not drawn)")
-8.71
>>> reading("c1ccc(Cc2noc(CN3CCCC3Cn3cccn3)n2)cc1 (stereo not drawn)")
-7.45
>>> reading("Cc1nn(C)c2c(N3CCN(C(=O)C4CC4)CC3)ncnc12")
16.2
>>> reading("CN(C)CCN(Cc1ccccc1)C(=O)C1=NNC(=O)CC1")
-6.1
>>> reading("Cn1cc(C(=O)N2C[C@H]3C[C@H](Oc4ccccc4)C[C@H]3C2)cn1")
-3.01
>>> reading("Cc1nn(C)c(N(C)C)c1CNCc1ccccc1CN(C)C")
18.8
>>> reading("Cn1cccc1C(=O)N1CCn2cc(CN3CCCC3)nc2C1")
-1.14
>>> reading("O=C(Nc1ccccc1OC1CCOC1)c1[nH]nc2c1CCCC2 (stereo not drawn)")
8.78
>>> reading("CCOc1ncccc1CNC(=O)c1cc(C)on1")
-8.59
>>> reading("O=S(=O)(C1CC1)N1CCC2(CN(c3ncccn3)C2)C1")
9.33
>>> reading("Cc1cnc(N2CC3(CCN(C(=O)c4cccnc4)C3)C2)nc1")
-4.83
>>> reading("Cn1ccnc1CN1CCC(CCC(=O)Nc2ccccc2Cl)CC1")
-2.64
>>> reading("CC(Sc1nnc(C2CC2)n1CC(N)=O)c1ccc(F)cc1F (stereo not drawn)")
-4.59
>>> reading("CC(Nc1ccc(Br)cc1)c1nc(C2CC2)no1 (stereo not drawn)")
-1.22
>>> reading("CC(C)[C@@H]1CN(C(=O)CCc2ccc(F)cc2)C[C@H]1C(=O)O")
28.6
>>> reading("O=C(CC1CC1)N[C@@H]1CN(Cc2nccs2)C[C@@H]2CCCO[C@@H]21")
-2.11
>>> reading("O=c1[nH]c(CCN2CCCCC2Cn2cccn2)nc2ccccc12 (stereo not drawn)")
-1.7
>>> reading("CN(C)C(=O)N1CC2(CCOCC2)c2cc(NC(=O)CCO)ccc21")
-0.169
>>> reading("Cc1cc(N2CCOC(c3ccc(N(C)C)cn3)C2)nc(N)n1 (stereo not drawn)")
-6.31
>>> reading("CC(C)(C)c1cc(NC(=O)C2CCCO2)n(-c2ccccn2)n1 (stereo not drawn)")
-2.77
